Target: K289M pol β (Homo sapiens, UniProt P06746, K289M)
Construct: made in house
Assay: Single turnover polymerase activity (rapid-quench), K289M pol β
Assay type: biochemical
Conditions: apparent dNTP dissociation constant; Control in APC sequence, templating base C
READOUT_NAME: Kd (nM)

MOLECULE	QUANTITATIVE_READOUT
Nc1nc2c(ncn2C2CC(O)C(COP(=O)(O)OP(=O)(O)C(F)P(=O)(O)O)O2)c(=O)[nH]1 (mixture of isomers)	1200

I = Nc1nc2c(ncn2C2CC(O)C(COP(=O)(O)OP(=O)(O)C(Cl)P(=O)(O)O)O2)c(=O)[nH]1 (mixture of isomers) [CHCl]
II = Nc1ccn([C@H]2C[C@H](O)[C@@H](COP(=O)(O)OP(=O)(O)OP(=O)(O)O)O2)c(=O)n1
III = Nc1nc2c(ncn2[C@H]2C[C@H](O)[C@@H](COP(=O)(O)OP(=O)(O)OP(=O)(O)O)O2)c(=O)[nH]1
IV = Nc1nc2c(ncn2[C@H]2C[C@H](O)[C@@H](COP(=O)(O)OP(=O)(O)CP(=O)(O)O)O2)c(=O)[nH]1
Sort the 4 molecules by Kd; largest first, smallest last. As an answer, provide the labels arranged in the order called for. II, I, IV, III

----------
Target: K289M pol β (Homo sapiens, UniProt P06746, K289M)
Construct: made in house
Test: Single turnover polymerase activity (rapid-quench), K289M pol β
Type: biochemical
Conditions: Control sequence, templating base C
READOUT_NAME: kpol (s⁻¹)

Some compounds with recorded kpol:
COMPOUND	TGT	MEASURE_UNIT	kpol
Nc1nc2c(ncn2C2CC(O)C(COP(=O)(O)OP(=O)(O)C(F)P(=O)(O)O)O2)c(=O)[nH]1 (mixture of isomers)	K289M pol β (Homo sapiens, UniProt P06746, K289M)	s⁻¹	1.50
Nc1nc2c(ncn2C2CC(O)C(COP(=O)(O)OP(=O)(O)C(Cl)P(=O)(O)O)O2)c(=O)[nH]1 (mixture of isomers) [CHCl]	K289M pol β (Homo sapiens, UniProt P06746, K289M)	s⁻¹	1.18
Nc1nc2c(ncn2[C@H]2C[C@H](O)[C@@H](COP(=O)(O)OP(=O)(O)CP(=O)(O)O)O2)c(=O)[nH]1	K289M pol β (Homo sapiens, UniProt P06746, K289M)	s⁻¹	0.58

a = Nc1ccn([C@H]2C[C@H](O)[C@@H](COP(=O)(O)OP(=O)(O)OP(=O)(O)O)O2)c(=O)n1
b = Nc1nc2c(ncn2[C@H]2C[C@H](O)[C@@H](COP(=O)(O)OP(=O)(O)OP(=O)(O)O)O2)c(=O)[nH]1
Field: entry with larger kpol (options a / b ). Answer with the label corresponding to your selection. b
(b: 1.52 s⁻¹, a: 0.02 s⁻¹)

----------
Target: WT pol β (Homo sapiens, UniProt P06746)
Construct: made in house
Assay: Single turnover polymerase activity (rapid-quench), WT pol β
Format: biochemical
Details: Control in APC sequence, templating base C
READOUT_NAME: kpol (s⁻¹)

The following compounds have reported results that may help.
COMPOUND	READOUT_NAME	QUANTITATIVE_READOUT
Nc1nc2c(ncn2C2CC(O)C(COP(=O)(O)OP(=O)(O)C(F)P(=O)(O)O)O2)c(=O)[nH]1 (mixture of isomers) [CHF]	kpol	19.9
Nc1nc2c(ncn2[C@H]2C[C@H](O)[C@@H](COP(=O)(O)OP(=O)(O)OP(=O)(O)O)O2)c(=O)[nH]1 [dGTP]	kpol	22.1
Nc1nc2c(ncn2C2CC(O)C(COP(=O)(O)OP(=O)(O)C(Cl)P(=O)(O)O)O2)c(=O)[nH]1 (mixture of isomers) [CHCl]	kpol	11.9

I = Nc1ccn([C@H]2C[C@H](O)[C@@H](COP(=O)(O)OP(=O)(O)OP(=O)(O)O)O2)c(=O)n1 [dCTP]
II = Nc1nc2c(ncn2[C@H]2C[C@H](O)[C@@H](COP(=O)(O)OP(=O)(O)CP(=O)(O)O)O2)c(=O)[nH]1 [CH2]
Would you mind telling me which has the lower recorded kpol between I and II ? Response format: the label of the selected entry. I
(I: 0.03 s⁻¹, II: 3.10 s⁻¹)
